Target: UniProtKB V5T6E3
Assay: biochemical
Type: binding
Conditions: ligand concentration 2, replicate 2
propertyLabel: Fluorescence intensity, fluorescence competitive binding assay, OBP11

# compound, valueReported
measured = [
    ("CCC/C=C/CO [(E)-2-hexenol]", 32362),
    ("CCCCCCCCCCC", 25403),
    ("CC/C=C\\CCO [(Z)-3-hexenol]", 23122),
    ("Cc1cc(C(C)(C)C)c(O)c(C(C)(C)C)c1", 22642),
    ("CCCCCCC=CCO", 35290),
    ("OC1CCCCC1", 24650),
    ("Cc1ccc(C(C)C)cc1", 29566),
    ("CCCCCCCCCCCCC=O", 25926),
    ("CCCCCCCCCCCCCC", 27499),
    ("C=C(C)C1CC=C(C)CC1 (single isomer, unassigned; (+)) [(+)-limonene]", 20635),
    ("C[C@@H]1CC[C@H]2C(C)(C)[C@H]3C[C@@]12CC[C@@]3(C)O", 32061),
    ("C/C(=C\\CO)CCC[C@H](C)CCC[C@H](C)CCCC(C)C", 15087),
    ("CCCCCCCCC=O", 27026),
    ("CCCCCC(C)=O", 24787),
    ("CCCCCCCCCCCCCCCCCCC", 36085),
    ("O=C(c1ccccc1)c1ccccc1", 21005),
    ("CC(=O)c1ccccc1", 26162),
    ("C=CC(C)(O)CCC=C(C)CCC=C(C)C (mixture of isomers)", 31162),
    ("c1ccc2ccccc2c1", 32473),
    ("C=C1CC/C=C(\\C)CC[C@@H]2[C@@H]1CC2(C)C", 23335),
    ("CCCCCCCC=O", 24939),
    ("CC1=CC[C@@H](C(C)(C)O)CC1", 30685),
    ("CC(C)COC(=O)CCCCC(=O)OCC(C)C [DA(diisobutyl adipate)]", 24884),
    ("CCCCCCCCCCCCO", 24290),
]

====

Target: SfurOBP2 (Sogatella furcifera, UniProt V5T759)
Sequence (V5T759 entry or part of it): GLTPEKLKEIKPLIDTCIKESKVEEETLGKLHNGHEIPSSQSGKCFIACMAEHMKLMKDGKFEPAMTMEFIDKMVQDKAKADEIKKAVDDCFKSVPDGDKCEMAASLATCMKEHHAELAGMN
Experiment: biochemical
Type: binding
Details: ligand concentration 6 (unit not given), replicate column 1 of 3
Label True when Fluorescence competitive binding assay, OBP2 (raw fluorescence reading) is strictly below 20000; otherwise label False.

# compound, group
rows = [
    ("C=CC(C)(O)CCC=C(C)CCC=C(C)C (mixture of isomers)", "True"),
    ("CCCCCCCCCCCCCCCC", "True"),
    ("C[C@@H]1CC[C@H]2C(C)(C)[C@H]3C[C@@]12CC[C@@]3(C)O", "False"),
    ("Cc1ccc(C(C)C)cc1", "True"),
    ("c1ccc2ccccc2c1", "False"),
    ("CCC/C=C/CO [(E)-2-hexenol]", "True"),
    ("C=C1CC/C=C(\\C)CC[C@@H]2[C@@H]1CC2(C)C", "True"),
    ("CCCCCCCCCCCCCCCCCCC", "False"),
    ("CCCCCCC=CCO", "False"),
]

====

Target: SfurOBP2 (Sogatella furcifera, UniProt V5T759)
Assay: biochemical
Type: binding
Conditions: ligand concentration 20 (unit not given), replicate column 2 of 3
// values below are reported Fluorescence competitive binding assay, OBP2 (raw fluorescence reading)
propertyLabel: Fluorescence competitive binding assay, OBP2 (raw fluorescence reading)

# compound, valueReported
data = [
    ("C=C/C(C)=C/C/C=C(\\C)CCC=C(C)C", 20680),
    ("OC1CCCCC1", 14904),
    ("C=C1CC/C=C(\\C)CC[C@@H]2[C@@H]1CC2(C)C", 21222),
    ("CCCCCCCC", 10679),
    ("CC1=CC[C@@H](C(C)(C)O)CC1", 14580),
    ("CCCCCC=O", 14819),
    ("CC/C=C\\CCO [(Z)-3-hexenol]", 12815),
]

====

Target: SfurOBP11 (Sogatella furcifera, UniProt V5T6E3)
Sequence (V5T6E3 entry or part of it): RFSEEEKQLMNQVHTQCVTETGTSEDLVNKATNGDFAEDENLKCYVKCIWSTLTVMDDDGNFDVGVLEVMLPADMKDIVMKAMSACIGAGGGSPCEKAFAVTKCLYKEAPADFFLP
Assay: biochemical
Type: binding
Conditions: ligand concentration 10, replicate 1
Labels assigned by Fluorescence intensity, fluorescence competitive binding assay, OBP11 range: bottom (below 20000), middle (20000 to below 30000), top (30000 or more)

# compound, group
rows = [
    ("COC(=O)c1ccccc1", "middle"),
    ("CCCCCC=O", "middle"),
    ("CCCCCCCCCCCCCCCC(=O)OC [MH(methyl hexadecanoate)]", "top"),
    ("O=C(c1ccccc1)c1ccccc1", "bottom"),
    ("CCCCCCCCCCOCCCCCCCCCC", "top"),
    ("CCC/C=C/CO [(E)-2-hexenol]", "middle"),
    ("CC/C=C\\CCO [(Z)-3-hexenol]", "bottom"),
    ("C=C1CC/C=C(\\C)CC[C@@H]2[C@@H]1CC2(C)C", "middle"),
]

====

Reported Fluorescence competitive binding assay, OBP2 (raw fluorescence reading) values for a set of compounds
Target: SfurOBP2 (Sogatella furcifera, UniProt V5T759)
Experiment: biochemical
Assay type: binding
Conditions: ligand concentration 16 (unit not given), replicate column 1 of 3
propertyLabel: Fluorescence competitive binding assay, OBP2 (raw fluorescence reading)

# compound, valueReported
data = [
    ("CCCCCCC=CCO", 16016),
    ("CC(=O)c1ccccc1", 15319),
    ("C=C(C)C1CC=C(C)CC1 (single isomer, unassigned; (+)) [(+)-limonene]", 12506),
    ("CC/C=C\\CCO [(Z)-3-hexenol]", 13168),
    ("CCCCCCCCCCCCCCCCCCC", 21871),
    ("C=CC(C)(O)CCC=C(C)C (stereo not drawn)", 16976),
    ("CC(C)COC(=O)CCCCC(=O)OCC(C)C [DA(diisobutyl adipate)]", 14285),
    ("CCCCCCCC=O", 15983),
    ("CCCCCCCCCCCCC=O", 17882),
    ("CCCCCCCCCCCCO", 13014),
    ("COC(=O)c1ccccc1", 13829),
    ("CC(=O)/C=C/C1=C(C)CCCC1(C)C", 12366),
]

====

Target: SfurOBP11 (Sogatella furcifera, UniProt V5T6E3)
Assay: biochemical
Type: binding
Details: ligand concentration 2, replicate 2
propertyLabel: Fluorescence intensity, fluorescence competitive binding assay, OBP11

# compound, valueReported
data = [
    ("C=CC(C)(O)CCC=C(C)C (stereo not shown)", 35145),
    ("O=Cc1ccccc1", 26420),
    ("CCCCCCCC", 29331),
    ("CCCCCC=O", 27160),
    ("CC(=O)/C=C/C1=C(C)CCCC1(C)C", 27736),
    ("COC(=O)c1ccccc1", 29257),
    ("CCCCCCCCCCCCCCCC", 24436),
    ("CCCCCCCCCCOCCCCCCCCCC", 38605),
    ("CCCCCCCCCCCCCCCC(=O)OC [MH(methyl hexadecanoate)]", 25881),
    ("CCCCCCCCCCCCCCCCCC", 31165),
]

====

Target: UniProt:V5T759
Test: biochemical
Type: binding
Conditions: ligand concentration 12 (unit not given), replicate column 1 of 3
Method: Thirty-six rice odorants ([He et al., 2014]; [Wang et al., 2017]) and 1-N-phenyl-naphthylamine (1-NPN) were purchased from Sigma-Aldrich (St Louis, MO, USA). […] Fluorescence competitive binding assays were performed on Tecan Spark 10M (Tecan Group Ltd., Männedorf, Switzerland) with the F96 Black ELIAS Plate (Sangon) ([Khuhro et al., 2017]; [Liu et al., 2017]). The solutions were excited at 337 nm and emission spectra were recorded between 390 and 490 nm. […]
propertyLabel: Fluorescence competitive binding assay, OBP2 (raw fluorescence reading)

# compound, valueReported
data = [
    ("C=C1CC/C=C(\\C)CC[C@@H]2[C@@H]1CC2(C)C [β-caryophyllene]", 16497),
    ("CCCCCCCCCCCCCCCCCCC [n-nonadecane]", 23732),
    ("C=C(C)C1CC=C(C)CC1 (single isomer, unassigned; (+)) [(+)-limonene]", 16493),
    ("Cc1ccc(C(C)C)cc1 [4-isopropyltoluene]", 14433),
    ("CC(=O)/C=C/C1=C(C)CCCC1(C)C [β-Ionone]", 15640),
    ("CC(=O)c1ccccc1 [acetophenone]", 16049),
    ("c1ccc2ccccc2c1 [naphthalene]", 19697),
    ("C=CC(C)(O)CCC=C(C)C (stereo not drawn) [linalool]", 17194),
    ("CC(C)COC(=O)CCCCC(=O)OCC(C)C [DA(diisobutyl adipate)]", 14706),
    ("CCCCCCCCC=O [nonanal]", 18220),
    ("CCCCCC(C)=O [2-heptanone]", 14577),
    ("CC/C=C\\CCO [(Z)-3-hexenol]", 16106),
]
